These data points were gathered from paper PMC9064813.

- study-system: thrombin (Bos taurus, UniProt P00735)
- Construct: thrombin consists of a 36-residue light chain and a 259-residue heavy chain; purchased Sigma-Aldrich Co. (St. Louis, MO, USA)
- measurement-description: in vitro antithrombotic activity (thrombin-induced fibrinogen clotting, absorbance at 405 nm)
- Assay type: biochemical, Bovine
Where no end group is shown, it is not given here.
property-label: pIC50
// returns pIC50 (minus log10 of molar concentration), number only

Fill in reported pIC50 for this entry: AGFAGDDAPR [P10, AGFAGDDAPR] 3.79
